TARGET_OR_SYSTEM: α-syn aggregate (human, UniProt P37840 1-140)
PROCEDURE_TEXT: Octet (BLI), α-syn aggregate (Example 2-6)
pKd: −log10 of the molar value.
The following binders are shown together with reported pKd values.
REPORTED_METRIC: pKd

- DG8 (scFv, V domains shown, Clone from a human scFv phage library; also called ScFV anti α-Syn antibody DG8) VH: EVQLLESGGGLVQPGGSLRLSCAASGFTFSDHAMSWVRQAPGKGLEWVSVISHGNGSKYYADSVKGRFTISRDNSKNTLYLQMNSLRAEDTAVYYCARVASRCRRGRCSYSDGMDVWGQGTLVTVSS VL: QSVLTQPPSASGTPGQRVTISCSGSSSNIGSNSVSWYQQLPGTAPKLLIYANNNRPSGVPDRFSGSKSGTSASLAISGLRSEDEADYYCGAWDSSLSAYVFGGGTKLTVLG: 8.42
- DA9 (scFv, V domains shown, Clone from a human scFv phage library; also called ScFV anti α-Syn antibody DA9) VH: EVQLLESGGGLVQPGGSLRLSCAASGFTFSNYAMSWVRQAPGKGLEWVSVISPSDSNTYYADSVKGRFTISRDNSKNTLYLQMNSLRAEDTAVYYCARVTLSCRASRCSYSNGMDVWGQGTLVTVSS VL: QSVLTQPPSASGTPGQRVTISCSGSPSNIGNNSVSWYQQLPGTAPKLLIYANSHRPSGVPDRFSGSKSGTSASLAISGLRSEDEADYYCGSWDASLNGYVFGGGTKLTVLG: 8.37
- AD2 (scFv, V domains shown, Clone from a human scFv phage library; also called ScFV anti α-Syn antibody AD2) VH: EVQLLESGGGLVQPGGSLRLSCAASGFTFSNYAMSWVRQAPGKGLEWVSAISHSGSSKYYADSVKGRFTISRDNSKNTLYLQMNSLRAEDTAVYYCARSGNNFDYWGQGTLVTVSS VL: QSVLTQPPSASGTPGQRVTISCTGSSSNIGNNSVSWYQQLPGTAPKLLIYSDNNRPSGVPDRFSGSKSGTSASLAISGLRSEDEADYYCGSWDASLSGYVFGGGTKLTVLG: 8.78
- AC8 (scFv, V domains shown, Clone from a human scFv phage library; The screen used soluble HA-tagged scFv; The dot blot was detected with anti-human Fc-HRP, so an Fc-bearing format may have been used there; also called ScFV anti α-Syn antibody AC8) VH: EVQLLESGGGLVQPGGSLRLSCAASGFTFSDYSMSWVRQAPGKGLEWVSGISSGGSSKYYADSVKGRFTISRDNSKNTLYLQMNSLRAEDTAVYYCAKIFHNFDYWGQGTLVTVSS VL: QSVLTQPPSASGTPGQRVTISCSGSSSNIGSNNVYWYQQLPGTAPKLLIYYDSQRPSGVPDRFSGSKSGTSASLAISGLRSEDEADYYCASWDASLSAYVFGGGTKLTVLG: 9.62
- 3A9 (antibody, V domains shown, Only the variable domains are tied to the clone as tested; also called mouse monoclonal anti α-Syn antibody 3A9) VH: EVQLQESGGGLVKPGGSLKLSCAASGFTFSSYAMSWVRQTPEKRLEWVATISNGGGYTYYPDSVKGRFTISRDNAKNTLYLQMSSLRSEDTAMYYCARHITTVRPTKYFDYWGQGTTLTVSS VL: DIVMTQSPKFMSTSVGDRVSITCKASQNVGTTVAWYQQKPGQSPKLLIYSASNRYTGVPDRFTGSGSGTDFTLTISNMQSEDLADYFCQQYSNYPLTFGAGTKLELR: 9.89
